Data provenance: the supplement of paper PMC12494721

System: Klebsiella aerogenes DSM 30053
Test Method Notes: fold change of Putrescine concentration vs plate DMSO controls (fold change (ratio)); higher = more amine produced, active = hit call of the paper (significant change in both replicates, either direction)
Assay Context: incubation time: 27 h, anaerobic, 37 °C
Where a name gives a salt, the structure may show the parent alone.
Property Label: fold change of Putrescine concentration
Numbers only.

Compound	fold change of Putrescine concentration
[S] (20 µM)	0.962
C=C1C[C@@]23CC[C@H]4[C@@](C)(CCC[C@@]4(C)C(=O)O[C@@H]4O[C@H](CO)[C@@H](O)[C@H](O)[C@H]4O)[C@@H]2CC[C@]1(O[C@@H]1O[C@H](CO)[C@@H](O)[C@H](O)[C@H]1O)C3 [Rubusoside] (50 µM)	1.01
CN1C(=O)CC(c2ccccc2)C1=O (centres undefined) [Phensuximide] (20 µM)	1.01
CC(C)c1cc2c(cc1S(=O)(=O)O)[C@@]1(C)CCC[C@@](C)(C(=O)O)[C@@H]1CC2 [Ecabet sodium] (20 µM)	1
Cc1cc2nc3c(=O)[nH]c(=O)nc-3n(C[C@H](O)[C@H](O)[C@H](O)CO)c2cc1C [Riboflavine] (20 µM)	0.964
CC(C)(C)NC[C@@H](O)COc1cccc2c1CCCC2=O [(+) Levobunolol hydrochloride] (20 µM)	0.985
CCOC(=O)Nc1ccc2c(c1)N(C(=O)CCN1CCOCC1)c1ccccc1S2 [Moricizine hydrochloride] (20 µM)	1.01
COc1cc2nc(N(C)CCCNC(=O)C3CCCO3)nc(N)c2cc1OC (centres undefined) [Alfuzosin hydrochloride] (20 µM)	0.99
CC1COc2c(N3CCN(C)CC3)c(F)cc3c(=O)c(C(=O)O)cn1c23 (centres undefined) [Ofloxacin] (20 µM)	0.653
C[C@]12CCC(=O)C=C1CC[C@@H]1[C@@H]2[C@@H](O)C[C@@]2(C)[C@H]1CC[C@]2(O)C(=O)CO [Hydrocortisone] (20 µM)	1

Please state, for each entry, its recorded fold change of Putrescine concentration.
1. CC(CN(C)C)CN1c2ccccc2Sc2ccccc21 (centres undefined) [Trimeprazine tartrate] (20 µM)
2. CCCCCCCCCCCCCCCCCCCCCC(=O)Nc1ccn([C@@H]2O[C@H](CO)[C@@H](O)[C@@H]2O)c(=O)n1 [Enocitabine] (20 µM)
3. COc1ccccc1N1CCN(CCCCNC(=O)c2ccc3ccccc3c2)CC1 (20 µM)
4. COc1ccc(-c2cc(=O)c3c(O)cc(O[C@@H]4O[C@H](CO[C@@H]5O[C@@H](C)[C@H](O)[C@@H](O)[C@H]5O)[C@@H](O)[C@H](O)[C@H]4O)cc3o2)cc1O [Diosmin] (20 µM)

**A:**
1: 1; 2: 1.01; 3: 0.962; 4: 0.992
